- tested-on: FAAH (Homo sapiens, UniProt O00519)
- test-protocol: Assay Method 1: human FAAH assay (3H-anandamide hydrolysis in cell homogenate)
- Assay type: biochemical
- Set-up: expressed in transfected cells; host or cells: SK-N-MC cells stably transfected with human FAAH cDNA (G418 selection); alternatively T84 cell pellets
- assay-context: read-out: Assay 1 IC50
pIC50: −log10 of the molar value.
readout-name: pIC50

compound: O=C(Nc1cccnc1)N1CC2(CCN(Cc3ccc(OC(F)(F)F)c(Cl)c3)CC2)C1 [Example 111]
recorded-measurement: 5.93
//
compound: O=C(Nc1cccnc1)N1CC2(CCN(Cc3ccc(Cl)c(OC(F)(F)F)c3)CC2)C1 [Example 110]
recorded-measurement: 5.89
//
compound: O=C(Nc1cccnc1)N1CC2(CCN(Cc3cccc(Oc4ccc(F)c(C(F)(F)F)c4)c3)CC2)C1 [Example 113]
recorded-measurement: 6.25

[a] O=C(Nc1cccnc1)N1CC2(CCN(Cc3cccc(Oc4cccc(C(F)(F)F)c4)c3)CC2)C1 [Example 114]
[b] O=C(Nc1cnc2ccccn12)N1CC2(CCN(Cc3cccc(Oc4ccc(Cl)cc4)c3)CC2)C1 [Example 29]
[c] O=C(Nc1cccnc1)N1CCC2(CCCN2Cc2cccc(Oc3ccc(Cl)cc3)c2)C1 (centres unmarked) [Example 7]
IN: Put the items in order so that reported pIC50 rises from first to last. Reply with the labels, ordered as the question asks.
OUT: c, a, b

====

- tested-on: FAAH (Homo sapiens, UniProt O00519)
- Sequence (O00519 1-579): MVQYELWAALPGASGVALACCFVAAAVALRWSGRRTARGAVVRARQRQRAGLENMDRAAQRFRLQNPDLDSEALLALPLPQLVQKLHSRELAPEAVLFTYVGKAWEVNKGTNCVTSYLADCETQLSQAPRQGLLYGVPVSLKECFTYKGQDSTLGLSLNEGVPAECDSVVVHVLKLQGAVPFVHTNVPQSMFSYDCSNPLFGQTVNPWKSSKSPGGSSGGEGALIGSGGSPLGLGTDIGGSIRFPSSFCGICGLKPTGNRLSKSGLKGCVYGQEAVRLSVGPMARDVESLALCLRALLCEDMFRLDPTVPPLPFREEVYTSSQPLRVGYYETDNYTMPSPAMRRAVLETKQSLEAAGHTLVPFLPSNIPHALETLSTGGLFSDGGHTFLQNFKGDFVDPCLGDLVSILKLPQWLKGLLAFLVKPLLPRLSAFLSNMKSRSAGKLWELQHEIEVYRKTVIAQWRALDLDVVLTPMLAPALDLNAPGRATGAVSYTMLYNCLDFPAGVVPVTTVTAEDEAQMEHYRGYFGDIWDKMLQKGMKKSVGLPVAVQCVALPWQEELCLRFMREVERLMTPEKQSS
- test-protocol: Assay Method 1: human FAAH assay (3H-anandamide hydrolysis in cell homogenate)
- Assay type: biochemical
- Parameters: expressed in transfected cells; host or cells: SK-N-MC cells stably transfected with human FAAH cDNA (G418 selection); alternatively T84 cell pellets
- assay-context: read-out: Assay 1 IC50
pIC50: −log10 of the molar value. Structures can show the parent of a compound that is named as a salt.
readout-name: pIC50

compound: O=C(Nc1cncc(Cl)c1)N1CC2(CCN(Cc3cccc(Oc4ccc(Cl)cc4)c3)CC2)C1 [Example 57, trifluoroacetic acid salt]
pIC50: 6.59

[I] O=C(Nc1cccnc1)N1CC2(CCN(Cc3cccc(Oc4ccc5c(c4)OC(F)(F)O5)c3)CC2)C1
[II] O=C(Nc1cccnc1)N1CC2(CCN(Cc3cccc(Oc4ccc(Cl)cc4)c3)CC2)C1
IN: Compare pIC50: is it lower for I or for II ? Your answer should be the label attached to the chosen record.
OUT: I
(I: 6.80, II: 7.05)

====

- tested-on: Rat FAAH (Rattus norvegicus, UniProt P97612)
- Construct: expressed in transfected cells; host or cells: SK-N-MC cells stably transfected with rat FAAH cDNA (G418 selection)
- test-protocol: Assay Method 2: rat FAAH assay (3H-anandamide hydrolysis in cell homogenate)
- Assay type: biochemical
- assay-context: read-out: Assay 2 IC50
Structures can show the parent of a compound that is named as a salt.
readout-name: IC50 (nM)

// solved cases for IC50 follow
molecule: N#Cc1ccncc1NC(=O)N1CC2(CCN(Cc3cccc(Oc4ccc(Cl)cc4)c3)CC2)C1
readout-name: IC50
recorded-measurement: 10
//
molecule: O=C(Nc1ccc(-n2nccn2)nc1)N1CCCC2(CCCN(Cc3cccc(Oc4ccc(Cl)cc4)c3)C2)C1 (stereo not shown)
readout-name: IC50
recorded-measurement: 580

[I] O=C(Nc1cccnc1)N1CC2(CCN(Cc3cccc(Oc4cccc(OC(F)(F)F)c4)c3)CC2)C1
[II] COc1ccc(NC(=O)N2CC3(CCN(Cc4cccc(Oc5ccc(Cl)cc5)c4)CC3)C2)nn1 [Example 70, trifluoroacetic acid salt]
[III] O=C(Nc1cnc2ccccc2c1)N1CCC2(CCN(Cc3cccc(Oc4ccc(Cl)cc4)c3)CC2)CC1
IN: Rank order required: IC50, descending. Present the labels in the sequence the task asks for.
OUT: I, II, III
(I: 8000 nM, II: 2400 nM, III: 10 nM)

====

- tested-on: Rat FAAH (Rattus norvegicus)
- Construct: expressed in transfected cells; host or cells: SK-N-MC cells stably transfected with rat FAAH cDNA (G418 selection)
- Sequence (P97612 1-579): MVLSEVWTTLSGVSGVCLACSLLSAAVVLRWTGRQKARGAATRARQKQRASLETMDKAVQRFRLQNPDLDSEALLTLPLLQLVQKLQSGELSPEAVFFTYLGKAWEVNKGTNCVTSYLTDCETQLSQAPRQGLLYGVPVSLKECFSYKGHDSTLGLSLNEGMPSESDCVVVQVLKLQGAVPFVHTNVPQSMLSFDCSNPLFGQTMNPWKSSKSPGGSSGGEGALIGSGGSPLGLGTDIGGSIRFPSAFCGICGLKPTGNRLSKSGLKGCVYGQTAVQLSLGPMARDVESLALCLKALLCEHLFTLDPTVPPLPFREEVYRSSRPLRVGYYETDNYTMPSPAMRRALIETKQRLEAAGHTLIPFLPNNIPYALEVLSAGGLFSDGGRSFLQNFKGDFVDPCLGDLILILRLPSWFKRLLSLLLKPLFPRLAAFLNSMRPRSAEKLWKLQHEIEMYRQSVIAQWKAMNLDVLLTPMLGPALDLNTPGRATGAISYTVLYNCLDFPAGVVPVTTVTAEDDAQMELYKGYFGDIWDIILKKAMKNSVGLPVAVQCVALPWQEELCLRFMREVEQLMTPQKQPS
- test-protocol: Assay Method 2: rat FAAH assay (3H-anandamide hydrolysis in cell homogenate)
- Format: biochemical
- assay-context: read-out: Assay 2 IC50
Where a name gives a salt, the structure may show the parent alone.
readout-name: IC50 (nM)

molecule: O=C(Nc1nnn[nH]1)N1CC2(CCN(Cc3cccc(Oc4ccc(Cl)cc4)c3)CC2)C1 [Example 51, trifluoroacetic acid salt]
IC50, nM: 200

[a] O=C(Nc1ccc(-n2nccn2)cc1)N1CC2(CCN(Cc3cccc(Oc4ccc(Cl)cc4)c3)CC2)C1 [Example 41, trifluoroacetic acid salt]
[b] O=C(Nc1ccc(-n2nccn2)nc1)N1CCC2(CCN(Cc3cccc(Oc4ccc(Cl)cc4)c3)CC2)C1 [Example 91, trifluoroacetic acid salt]
IN: Sorting ascending by IC50, which comes first: a or b ? Pick one; state its label.
OUT: a
(a: 80 nM, b: 260 nM)

====

- tested-on: FAAH (Homo sapiens)
- Sequence (O00519 1-579): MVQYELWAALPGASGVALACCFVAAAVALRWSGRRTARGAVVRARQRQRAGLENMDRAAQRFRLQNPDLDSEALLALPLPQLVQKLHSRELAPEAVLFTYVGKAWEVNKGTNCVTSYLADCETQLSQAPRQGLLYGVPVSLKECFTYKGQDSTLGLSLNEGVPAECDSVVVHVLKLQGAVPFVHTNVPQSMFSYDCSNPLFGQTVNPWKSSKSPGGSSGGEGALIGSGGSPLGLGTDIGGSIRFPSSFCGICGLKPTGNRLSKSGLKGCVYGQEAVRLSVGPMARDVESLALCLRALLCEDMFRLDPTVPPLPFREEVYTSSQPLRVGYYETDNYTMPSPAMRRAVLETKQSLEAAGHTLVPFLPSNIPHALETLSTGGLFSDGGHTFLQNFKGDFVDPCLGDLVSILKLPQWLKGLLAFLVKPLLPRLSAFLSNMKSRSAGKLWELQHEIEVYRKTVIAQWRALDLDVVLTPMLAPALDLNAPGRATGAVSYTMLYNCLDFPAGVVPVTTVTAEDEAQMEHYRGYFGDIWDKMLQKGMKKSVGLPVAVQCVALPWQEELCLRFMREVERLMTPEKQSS
- test-protocol: Assay Method 1: human FAAH assay (3H-anandamide hydrolysis in cell homogenate)
- Type: biochemical
- Set-up: expressed in transfected cells; host or cells: SK-N-MC cells stably transfected with human FAAH cDNA (G418 selection); alternatively T84 cell pellets
- assay-context: read-out: Assay 1 IC50
Where a name gives a salt, the structure may show the parent alone.
readout-name: IC50 (nM)

// worked examples, IC50 included
molecule: Cc1nc2cc(NC(=O)N3CC4(CCN(Cc5cccc(Oc6ccc(Cl)cc6)c5)CC4)C3)ccc2o1 [Example 65]
IC50 [nM]: 240
--
molecule: O=C(Nc1ccc(-n2nccn2)nc1)N1CCC2(CCN(Cc3cccc(Oc4ccc(Cl)cc4)c3)CC2)C1 [Example 91, trifluoroacetic acid salt]
IC50 [nM]: 200
--
molecule: O=C(Nc1cnc2[nH]ccc2c1)N1CC2(CCN(Cc3cccc(Oc4ccc(Cl)cc4)c3)CC2)C1 [Example 40, trifluoroacetic acid salt]
IC50 [nM]: 60
--
molecule: O=C(Nc1cccnc1)N1CC2(CCN(Cc3cccc(C#Cc4ccccc4Cl)c3)CC2)C1 [Example 131]
IC50 [nM]: 330
--
molecule: O=C(Nc1cccnc1)N1CC2(CCN(Cc3cccc(Oc4ccc(Br)cc4)c3)CC2)C1 [Example 123]
IC50 [nM]: 200
--
molecule: O=C(Nc1cccnc1)N1CCC2(CCN(Cc3cccc(Oc4ccc(Cl)cc4)c3)C2)C1 (stereo not drawn) [Example 10]
IC50 [nM]: 1500

[a] O=C(Nc1cccnc1)N1CC2(CCN(Cc3cccc(C#Cc4ccccc4)c3)CC2)C1 [Example 105]
[b] Cc1cncc(NC(=O)N2CC3(CCN(Cc4cccc(Oc5ccc(Cl)cc5)c4)CC3)C2)c1 [Example 79, trifluoroacetic acid salt]
IN: Could you kindly indicate whether a or b has the higher IC50 value? Refer to your chosen entry by its label in the reply.
OUT: a
